IC50 values recorded for HBO-KAT7 (Homo sapiens, UniProt O95251)
Give bare numbers, in µM.

Known results for molecules:
Substance Smiles | IC50 / µM
COc1ccc(S(=O)(=O)Nc2noc3cccc(OC)c23)c2ncccc12 | 1.66
O=S(=O)(Nc1noc2cccc(Cl)c12)c1cccc2nonc12 | 9.63
COCc1cccc(S(=O)(=O)Nc2noc3cccc(Cl)c23)c1 | 15.5
O=S(=O)(Nc1noc2cccc(Cl)c12)c1ccc(-n2cccn2)cc1 | 54.8
COc1cccc2onc(NS(=O)(=O)c3cccc4cccnc34)c12 | 3.79

Each molecule below has a reported value. Please supply its IC50.
1. CCc1ccc(OC)c(S(=O)(=O)Nc2noc3cc(-c4ccccc4)ccc23)c1
2. CCc1ccc(OC)c(S(=O)(=O)Nc2noc3ccc(CNC(=O)OC)cc23)c1
3. Cc1ccc(S(=O)(=O)Nc2noc3cccc(Cl)c23)cc1
4. CCOc1cccc2onc(NS(=O)(=O)c3cc(CC)ccc3OC)c12

Marked response:
1: 13.5; 2: 63.1; 3: 32.1; 4: 3.01

Each molecule below has a reported value. Please supply its IC50.
1. CCc1ccc(OC)c(S(=O)(=O)Nc2noc3cc(-c4ncccn4)ccc23)c1
2. COc1ccc(S(=O)(=O)Nc2noc3ccc(C)cc23)c(OC)c1
3. COc1cccc2onc(NS(=O)(=O)c3cccc4ccoc34)c12
4. COc1cc(COc2cccc(OC)c2S(=O)(=O)Nc2noc3cccc(OC)c23)ccn1
5. O=S(=O)(Nc1noc2cccc(Cl)c12)c1ccc(OC(F)(F)F)cc1
6. COc1cc(C#N)cc(-c2cc(OC)c3c(NS(=O)(=O)c4c(OC)cccc4OC)noc3c2)c1
7. COc1cc2c(cc1S(=O)(=O)Nc1noc3ccc(C4CC4)cc13)CCCC2

Marked response:
[28.9, 0.982, 6.73, 3.11, 23.9, 0.473, 0.936]

Each molecule below has a reported value. Please supply its IC50.
1. COc1cccc(OC)c1S(=O)(=O)Nc1noc2c(-c3ccccc3)cc(C)cc12
2. CCc1ccc(OC)c(S(=O)(=O)Nc2noc3cc(Br)ccc23)c1
3. CCc1ccc(OC)c(S(=O)(=O)Nc2noc3c(C)cccc23)c1
4. COc1ccc(F)cc1S(=O)(=O)Nc1noc2cccc(Cl)c12

Marked response:
[1.3, 3.68, 22, 6.01]

All values here come from patent US12365655B2.
